These entries and their values trace back to ChEMBL document CHEMBL3885861.

Species: Rattus norvegicus
Assay: Open TG-GATES - Regimen: Single
Type: toxicity, organism-based, Sprague-Dawley
Design: regimen Single, gender Male, age 6 weeks
Details: in vivo, po, 100 mg/kg, 9 h, tissue Blood, route gavage, dose level Low
Overview of recorded Ht for various compounds

{"COMPOUND": "COC(=O)C1=C(C)NC(C)=C(C(=O)OC)C1c1ccccc1[N+](=O)[O-]", "Ht, %": 38.7}
{"COMPOUND": "Cc1nnc2n1-c1ccc(Cl)cc1C(c1ccccc1Cl)=NC2", "Ht, %": 41}
{"COMPOUND": "CNC(=C[N+](=O)[O-])NCCSCc1ccc(CN(C)C)o1", "Ht, %": 37.7}
{"COMPOUND": "O=C(OC[C@H]1O[C@@H](OC(=O)c2cc(O)c(O)c(OC(=O)c3cc(O)c(O)c(O)c3)c2)[C@H](OC(=O)c2cc(O)c(O)c(OC(=O)c3cc(O)c(O)c(O)c3)c2)[C@@H](OC(=O)c2cc(O)c(O)c(OC(=O)c3cc(O)c(O)c(O)c3)c2)[C@@H]1OC(=O)c1cc(O)c(O)c(OC(=O)c2cc(O)c(O)c(O)c2)c1)c1cc(O)c(O)c(OC(=O)c2cc(O)c(O)c(O)c2)c1", "Ht, %": 39.3}
{"COMPOUND": "CN/C(=N/CCSCc1nc[nH]c1C)NC#N", "Ht, %": 36.9}
